system: Escherichia coli; experiment: minimum inhibitory concentration (MIC); details: isolate (source animal id): 127
measured_metric: minimum inhibitory concentration (µg/mL)
Hi! Could you send only the number? It should be in µg/mL, unit omitted.

Example entries and their recorded answers appear below.
# structure_as_smiles, assay_target, minimum inhibitory concentration (µg/mL)
rows = [
    ("CC[C@H]1OC(=O)C[C@@H](O)[C@H](C)[C@@H](O[C@@H]2O[C@H](C)[C@@H](O)[C@H](N(C)C)[C@H]2O)[C@@H](CCN2CCCCC2)C[C@@H](C)C(=O)/C=C/C(C)=C/[C@@H]1CN1CCCCC1", "Escherichia coli", 8),
    ("CO/N=C(\\C(=O)N[C@@H]1C(=O)N2C(C(=O)O)=C(CSC(=O)c3ccco3)CS[C@H]12)c1csc(N)n1", "Escherichia coli", 0.5),
    ("CC1(C)S[C@@H]2[C@H](NC(=O)[C@H](N)c3ccccc3)C(=O)N2[C@H]1C(=O)O", "Escherichia coli", 2),
]

response.value for `CCCN1C[C@H](C)[C@@H](O)[C@](C)(O)[C@@H](CC)OC(=O)[C@H](C)[C@@H](O[C@H]2C[C@@](C)(OC)[C@@H](O)[C@H](C)O2)[C@H](C)[C@@H](O[C@@H]2O[C@H](C)C[C@H](N(C)C)[C@H]2O)[C@](C)(O)C[C@H]1C` (field: minimum inhibitory concentration) = 8

====

test system: Mannheimia haemolytica; assay: minimum inhibitory concentration (MIC); conditions: isolate (source animal id): 18
measured_metric: minimum inhibitory concentration

Example entries and their recorded answers appear below.
# compound, measured_metric, data_value
rows = [
    ("CC[C@H]1OC(=O)C[C@@H](O)[C@H](C)[C@@H](O[C@@H]2O[C@H](C)[C@@H](O)[C@H](N(C)C)[C@H]2O)[C@@H](CCN2C[C@H](C)C[C@H](C)C2)C[C@@H](C)C(=O)/C=C/C(C)=C/[C@@H]1CO[C@@H]1O[C@H](C)[C@@H](O)[C@@H](OC)[C@H]1OC [Tilmicosin]", "minimum inhibitory concentration", "4 µg/mL"),
    ("CO/N=C(\\C(=O)N[C@@H]1C(=O)N2C(C(=O)O)=C(CSC(=O)c3ccco3)CS[C@H]12)c1csc(N)n1 [Ceftiofur]", "minimum inhibitory concentration", "≤ 0.25 µg/mL"),
    ("CC[C@H]1OC(=O)C[C@@H](O)[C@H](C)[C@@H](O[C@@H]2O[C@H](C)[C@@H](O)[C@H](N(C)C)[C@H]2O)[C@@H](CCN2CCCCC2)C[C@@H](C)C(=O)/C=C/C(C)=C/[C@@H]1CN1CCCCC1 [Tildipirosin]", "minimum inhibitory concentration", "≤ 1 µg/mL"),
]

response.value for CS(=O)(=O)c1ccc([C@@H](O)[C@@H](CF)NC(=O)C(Cl)Cl)cc1 [Florfenicol] (field: minimum inhibitory concentration) = 2 µg/mL

response.value for CC1(C)S[C@@H]2[C@H](NC(=O)Cc3ccccc3)C(=O)N2[C@H]1C(=O)O [Penicillin] (field: minimum inhibitory concentration) = ≤ 0.12 µg/mL

====

tested on: Escherichia coli; assay: minimum inhibitory concentration (MIC); details: isolate (source animal id): 11
Entries and their minimum inhibitory concentration values follow.

# compound, minimum inhibitory concentration
rows = [
    ("COc1cc(NS(=O)(=O)c2ccc(N)cc2)nc(OC)n1", "≤ 256 µg/mL"),
    ("COc1cc(Cc2cnc(N)nc2N)cc(OC)c1OC.Cc1cc(NS(=O)(=O)c2ccc(N)cc2)no1", "≤ 2 µg/mL"),
    ("CC[C@H]1OC(=O)C[C@@H](O)[C@H](C)[C@@H](O[C@@H]2O[C@H](C)[C@@H](O)[C@H](N(C)C)[C@H]2O)[C@@H](CCN2CCCCC2)C[C@@H](C)C(=O)/C=C/C(C)=C/[C@@H]1CN1CCCCC1", "4 µg/mL"),
    ("NC[C@@H]1O[C@H](O[C@H]2[C@@H](O)[C@H](O[C@@H]3[C@@H](O)[C@H](N)C[C@H](N)[C@H]3O[C@H]3O[C@H](CN)[C@@H](O)[C@H](O)[C@H]3N)O[C@@H]2CO)[C@H](N)[C@@H](O)[C@@H]1O", "≤ 4 µg/mL"),
]

Next, consider the following compound.
Short answer on Escherichia coli for CNC(C)C1CCC(N)C(OC2C(N)CC(N)C(OC3OCC(C)(O)C(NC)C3O)C2O)O1 (stereo not given) , minimum inhibitory concentration: ≤ 1 µg/mL

The origin of these recorded values is the supplement of paper PMC8612539.
